Target: DNA-directed RNA polymerase, mitochondrial (Homo sapiens) (UniProt O00411)
Sequence (O00411 whole entry): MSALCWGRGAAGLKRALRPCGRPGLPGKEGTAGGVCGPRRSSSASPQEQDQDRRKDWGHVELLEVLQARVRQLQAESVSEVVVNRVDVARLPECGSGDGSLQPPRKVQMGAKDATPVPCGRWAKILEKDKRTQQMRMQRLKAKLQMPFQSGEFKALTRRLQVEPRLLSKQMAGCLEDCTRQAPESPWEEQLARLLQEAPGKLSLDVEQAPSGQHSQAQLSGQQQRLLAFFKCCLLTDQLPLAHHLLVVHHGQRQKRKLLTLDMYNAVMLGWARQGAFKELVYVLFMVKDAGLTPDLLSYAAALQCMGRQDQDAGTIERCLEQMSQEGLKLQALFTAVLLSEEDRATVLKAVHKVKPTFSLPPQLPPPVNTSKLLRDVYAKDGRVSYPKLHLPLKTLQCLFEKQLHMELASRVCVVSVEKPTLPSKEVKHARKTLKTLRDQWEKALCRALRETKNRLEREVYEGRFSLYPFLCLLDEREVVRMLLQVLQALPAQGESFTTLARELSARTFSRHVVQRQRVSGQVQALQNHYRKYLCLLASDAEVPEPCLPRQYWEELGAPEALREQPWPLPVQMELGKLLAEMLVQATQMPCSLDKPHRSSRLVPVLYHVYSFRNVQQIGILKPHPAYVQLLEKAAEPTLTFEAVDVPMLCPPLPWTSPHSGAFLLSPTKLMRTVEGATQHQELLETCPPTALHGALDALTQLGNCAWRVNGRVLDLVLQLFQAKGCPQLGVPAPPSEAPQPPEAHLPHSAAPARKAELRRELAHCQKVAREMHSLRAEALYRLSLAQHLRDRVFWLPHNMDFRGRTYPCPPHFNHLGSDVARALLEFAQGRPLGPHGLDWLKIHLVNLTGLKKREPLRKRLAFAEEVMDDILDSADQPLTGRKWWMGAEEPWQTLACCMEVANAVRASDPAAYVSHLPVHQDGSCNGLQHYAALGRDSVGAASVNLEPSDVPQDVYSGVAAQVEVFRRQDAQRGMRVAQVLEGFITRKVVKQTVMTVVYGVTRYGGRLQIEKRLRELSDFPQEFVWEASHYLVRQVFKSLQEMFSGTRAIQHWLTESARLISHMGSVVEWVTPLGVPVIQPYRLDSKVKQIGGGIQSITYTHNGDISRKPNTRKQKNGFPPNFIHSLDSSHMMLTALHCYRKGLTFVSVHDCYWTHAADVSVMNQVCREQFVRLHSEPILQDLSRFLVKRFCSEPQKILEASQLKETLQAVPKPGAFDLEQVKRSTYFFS
Test: Inhibition of human POLRMT in human MIA PaCa-2 cells assessed as mitochondria coded ubiquinone oxidoreductase core subunit 1 (ND I) transcript level at 500 nM measured after 24 hrs by RT-qPCR analysis relative to control
Set-up: scale not given: the % may be the effect or the level left
Endpoint name: Activity (%)

mol=C[C@@H](Oc1cc2oc(=O)cc(-c3ccc(F)cc3Cl)c2cc1F)C(=O)N1CCCCC1 system_tested="DNA-directed RNA polymerase, mitochondrial (Homo sapiens) (UniProt O00411)" unit_symbol=% recorded_measurement=16

a. CCN(CC)C(=O)[C@@H](C)Oc1cc2oc(=O)cc(-c3cccc4ccccc34)c2cc1F
b. C[C@@H](Oc1cc2oc(=O)cc(-c3ccc(F)cc3Cl)c2cc1F)C(=O)N1CCCOCC1
c. C[C@@H](Oc1ccc2c(-c3ccc(F)cc3Cl)cc(=O)oc2c1Cl)C(=O)N1CCC[C@H](C(=O)O)C1
Task: Parameters: sort_field (Activity), sort_dir (desc). Your reply should list the labels following the order given in the request.
Result: c, a, b

====

Target: DNA-directed RNA polymerase, mitochondrial (Homo sapiens) (UniProt O00411)
Assay: Inhibition of human POLRMT in human MIA PaCa-2 cells assessed as mitochondria coded ubiquinone oxidoreductase core subunit 1 (ND I) transcript level at 500 nM measured after 24 hrs by RT-qPCR analysis relative to control
Set-up: scale not given: the % may be the effect or the level left
Endpoint name: Activity (%)

Look over these answered cases.
mol=C[C@@H](Oc1cc2oc(=O)cc(-c3ccc(F)cc3Cl)c2cc1F)C(=O)NCC1CC1 recorded_measurement=26
mol=CCN(CC)C(=O)[C@@H](C)Oc1cc2oc(=O)cc(-c3ccccc3F)c2cc1F recorded_measurement=30
mol=CCN(CC)C(=O)[C@@H](C)Oc1cc2oc(=O)cc(-c3cccc(Cl)c3)c2cc1F recorded_measurement=60

I. CCN(CC)C(=O)[C@@H](C)Oc1cc2oc(=O)cc(-c3ccc(Cl)cc3)c2cc1F
II. C[C@@H](Oc1cc2oc(=O)cc(-c3ccc(F)cc3Cl)c2cc1F)C(=O)N1CCC1
III. CCN(CC)C(=O)[C@@H](C)Oc1cc2oc(=O)cc(-c3ccccc3Cl)c2cc1F
Task: List items by Activity in falling order. Form entry: ranked labels (order as requested).
Result: I, II, III
(I: 55%, II: 33%, III: 10%)

====

Biological target: DNA-directed RNA polymerase, mitochondrial (Homo sapiens)
Test: Inhibition of human POLRMT in human MIA PaCa-2 cells assessed as mitochondria coded ubiquinone oxidoreductase core subunit 1 (ND I) transcript level at 500 nM measured after 24 hrs by RT-qPCR analysis relative to control
Design: scale not given: the % may be the effect or the level left
Endpoint name: Activity (%)

molecule=C[C@@H](Oc1cc2oc(=O)cc(-c3ccc(F)cc3Cl)c2cc1F)C(=O)N1CCCC1 system_tested="DNA-directed RNA polymerase, mitochondrial (Homo sapiens)" unit_symbol=% recorded_measurement=35
molecule=C[C@@H](Oc1cc2oc(=O)cc(-c3ccc(F)cc3Cl)c2cc1F)C(=O)NCCC#N system_tested="DNA-directed RNA polymerase, mitochondrial (Homo sapiens)" unit_symbol=% recorded_measurement=51
molecule=C[C@@H](Oc1cc(Cl)c2c(-c3ccc(F)cc3Cl)cc(=O)oc2c1)C(=O)N1CCC[C@H](C(=O)O)C1 system_tested="DNA-directed RNA polymerase, mitochondrial (Homo sapiens)" unit_symbol=% recorded_measurement=85
molecule=C[C@@H](Oc1ccc2c(-c3ccc(F)cc3Cl)cc(=O)oc2c1)C(=O)N1CCC[C@H](C(=O)O)C1 system_tested="DNA-directed RNA polymerase, mitochondrial (Homo sapiens)" unit_symbol=% recorded_measurement=23
molecule=COc1cc2c(-c3ccc(F)cc3Cl)cc(=O)oc2cc1O[C@H](C)C(=O)N1CCC[C@H](C(=O)O)C1 system_tested="DNA-directed RNA polymerase, mitochondrial (Homo sapiens)" unit_symbol=% recorded_measurement=67

P. CCN(CC)C(=O)[C@@H](C)Oc1cc2oc(=O)cc(-c3ccccc3)c2cc1F
Q. CCN(CC)C(=O)[C@@H](C)Oc1cc2oc(=O)cc(-c3ccccc3C)c2cc1F
Task: Smaller Activity value? Options are P and Q Choose, then provide that item's label.
Result: Q

a. C[C@@H](Oc1cc2oc(=O)cc(-c3ccc(F)cc3Cl)c2cc1F)C(=O)NCC(F)F
b. CCN(CC)C(=O)[C@@H](C)Oc1cc2oc(=O)cc(-c3ccccc3OC)c2cc1F
Task: # compare Activity for a vs b ; return the one with the smaller value Return value: the label identifying the chosen record.
Result: a
(a: 22%, b: 48%)

I. C[C@@H](Oc1cc2oc(=O)cc(-c3ccc(F)cc3Cl)c2cc1F)C(=O)N1CCCC(C#N)C1 (stereo partly drawn)
II. CCN(CC)C(=O)[C@@H](C)Oc1cc2oc(=O)cc(-c3ccc(F)cc3Cl)c2cc1F
III. C[C@@H](Oc1cc2oc(=O)cc(-c3ccc(F)cc3Cl)c2cc1F)C(=O)N(C)C1COC1
Task: Would you mind ranking these molecules by ascending Activity? Kindly provide the labels arranged according to the requested ordering.
Result: II, I, III
(II: 13%, I: 26%, III: 50%)
